Recorded values, source the supplement of paper PMC11061612.

System: M059J (Glioblastoma)
procedure_details: Bliss excess, mean over the matrix (fraction); higher = more synergy
Binary classification by Bliss excess, with -0.01 as an inclusive lower bound for YES; all other cases are NO.

Input line: In plain terms: is recorded Bliss excess at least -0.01 for COc1cccc(OCCCN)c1-c1cc(Nc2cnc(C#N)cn2)n[nH]1 [Prexasertib] + CN(C)CCCOc1ccc(-c2ccc3ncc4c(c3c2)n(C2CCOCC2)c(=O)n4C)cn1 [AZD0156] (first compound max 1 µM, 7x7, partner max 1 µM) ?
Output line: NO

---

Tested on: T-T (Esophageal Squamous Cell Carcinoma)
procedure_details: combination Emax (second highest fraction inhibited in the dose matrix, 72 h); higher = more inhibition; extreme values may be limits of the assay
reported_metric: combination Emax
Lab note: jot down the number only; don't add units.

The examples below pair each entry with its known result.
molecule	subject_of_test	combination Emax
Cc1cc2ncnn2cc1Nc1ncc2c(n1)n(C1CCOCC1)c(=O)n2C [AZD7648] + C[C@@H]1COCCN1C2=NC(=NC(=C2)C3(CC3)[S@](=N)(=O)C)C4=C5C=CNC5=NC=C4 [AZD6738] (first compound max 10 µM, 7x7, partner max 10 µM)	T-T (Esophageal Squamous Cell Carcinoma)	0.531
COc1cccc(OCCCN)c1-c1cc(Nc2cnc(C#N)cn2)n[nH]1 [Prexasertib] + Cc1cc2ncnn2cc1Nc1ncc2c(n1)n(C1CCOCC1)c(=O)n2C [AZD7648] (first compound max 1 µM, 7x7, partner max 10 µM)	T-T (Esophageal Squamous Cell Carcinoma)	0.65

// field: combination Emax; key: Cn1cnc2c(F)c(Nc3ccc(Br)cc3Cl)c(C(=O)NOCCO)cc21 [Selumetinib] + C[C@@H]1COCCN1C2=NC(=NC(=C2)C3(CC3)[S@](=N)(=O)C)C4=C5C=CNC5=NC=C4 [AZD6738] (first compound max 10 µM, 7x7, partner max 10 µM) ; value = 0.292

// field: combination Emax; key: CC1(C)CCC(CN2CCN(c3ccc(C(=O)NS(=O)(=O)c4ccc(NCC5CCOCC5)c([N+](=O)[O-])c4)c(Oc4cnc5[nH]ccc5c4)c3)CC2)=C(c2ccc(Cl)cc2)C1 [Venetoclax] + CN(C)CCCOc1ccc(-c2ccc3ncc4c(c3c2)n(C2CCOCC2)c(=O)n4C)cn1 [AZD0156] (first compound max 1 µM, 7x7, partner max 1 µM) ; value = 0.204

---

Recorded combination Emax by entry
Tested on: SK-GT-4 (Esophageal Adenocarcinoma)
procedure_details: combination Emax (second highest fraction inhibited in the dose matrix, 72 h); higher = more inhibition; extreme values may be limits of the assay

The examples below pair each entry with its known result.
compound	combination Emax
O=C(c1cc(Cc2n[nH]c(=O)c3ccccc23)ccc1F)N1CCN(C(=O)C2CC2)CC1 [Olaparib] + Cc1c2c(nn1C)CSCc1cc(n(C)n1)CSc1cc(c3ccccc3c1)OCCCc1c(C(=O)O)n(C)c3c-2c(Cl)ccc13 [AZD5991] (first compound max 10 µM, 7x7, partner max 1 µM)	0.0608
CS(=O)(=O)CCNCc1ccc(-c2ccc3ncnc(Nc4ccc(OCc5cccc(F)c5)c(Cl)c4)c3c2)o1 [Lapatinib] + Cn1cnc2c(F)c(Nc3ccc(Br)cc3Cl)c(C(=O)NOCCO)cc21 [Selumetinib] (first compound max 10 µM, 7x7, partner max 10 µM)	0.585
Cc1c2c(nn1C)CSCc1cc(n(C)n1)CSc1cc(c3ccccc3c1)OCCCc1c(C(=O)O)n(C)c3c-2c(Cl)ccc13 [AZD5991] + CCN(CCO)CCCOc1ccc2c(Nc3cc(CC(=O)Nc4cccc(F)c4)[nH]n3)ncnc2c1 [AZD2811] (first compound max 1 µM, 7x7, partner max 1 µM)	0.26

// field: combination Emax; key: COc1cccc(OCCCN)c1-c1cc(Nc2cnc(C#N)cn2)n[nH]1 [Prexasertib] + C[C@@H]1COCCN1C2=NC(=NC(=C2)C3(CC3)[S@](=N)(=O)C)C4=C5C=CNC5=NC=C4 [AZD6738] (first compound max 1 µM, 7x7, partner max 10 µM) ; value = 0.713

---

Test system: NCI-H661 (Non-Small Cell Lung Carcinoma)
procedure_details: combination Emax (second highest fraction inhibited in the dose matrix, 72 h); higher = more inhibition; extreme values may be limits of the assay
Recorded combination Emax by entry
Lab note: jot down the number only; don't add units.

compound	subject_of_test	combination Emax
CC1(C)CCC(CN2CCN(c3ccc(C(=O)NS(=O)(=O)c4ccc(NCC5CCOCC5)c([N+](=O)[O-])c4)c(Oc4cnc5[nH]ccc5c4)c3)CC2)=C(c2ccc(Cl)cc2)C1 [Venetoclax] + C[C@@H]1COCCN1C2=NC(=NC(=C2)C3(CC3)[S@](=N)(=O)C)C4=C5C=CNC5=NC=C4 [AZD6738] (first compound max 1 µM, 7x7, partner max 10 µM)	NCI-H661 (Non-Small Cell Lung Carcinoma)	0.654

Consider the additional compound presented here.
// field: combination Emax; key: COc1cccc(OCCCN)c1-c1cc(Nc2cnc(C#N)cn2)n[nH]1 [Prexasertib] + C[C@@H]1COCCN1C2=NC(=NC(=C2)C3(CC3)[S@](=N)(=O)C)C4=C5C=CNC5=NC=C4 [AZD6738] (first compound max 1 µM, 7x7, partner max 10 µM) ; value = 0.744

---

Tested on: KU812 (Chronic Myelogenous Leukemia)
procedure_details: Bliss excess, mean over the matrix (fraction); higher = more synergy
reported_metric: Bliss excess
Lab note: jot down the number only; don't add units.

molecule	experimental_value
NC1(C(=O)N[C@@H](CCO)c2ccc(Cl)cc2)CCN(c2ncnc3[nH]ccc23)CC1 [Capivasertib] + CC(C)n1c(=O)n(C)c2cnc3cc(F)c(-c4ccc(OCCCN5CCCCC5)nc4)cc3c21 [AZD1390] (first compound max 10 µM, 7x7, partner max 0.3 µM)	-0.0037

// field: Bliss excess; key: Cc1c2c(nn1C)CSCc1cc(n(C)n1)CSc1cc(c3ccccc3c1)OCCCc1c(C(=O)O)n(C)c3c-2c(Cl)ccc13 [AZD5991] + C=CCn1c(=O)c2cnc(Nc3ccc(N4CCN(C)CC4)cc3)nc2n1-c1cccc(C(C)(C)O)n1 [AZD1775] (first compound max 1 µM, partner max 1 µM) ; value = -0.0284

---

Tested on: SUP-B15 (B-Lymphoblastic Leukemia)
procedure_details: Bliss excess, mean over the matrix (fraction); higher = more synergy
reported_metric: Bliss excess
Lab note: jot down the number only; don't add units.

The examples below pair each entry with its known result.
compound	Bliss excess
NC1(C(=O)N[C@@H](CCO)c2ccc(Cl)cc2)CCN(c2ncnc3[nH]ccc23)CC1 [Capivasertib] + Cn1cnc2c(F)c(Nc3ccc(Br)cc3Cl)c(C(=O)NOCCO)cc21 [Selumetinib] (first compound max 10 µM, 7x7, partner max 10 µM)	0.0854
C[C@@H](c1ccc2nccn2c1)n1nnc2ncc(-c3cnn(C)c3)nc21 [Savolitinib] + CC1(C)CCC(CN2CCN(c3ccc(C(=O)NS(=O)(=O)c4ccc(NCC5CCOCC5)c([N+](=O)[O-])c4)c(Oc4cnc5[nH]ccc5c4)c3)CC2)=C(c2ccc(Cl)cc2)C1 [Venetoclax] (first compound max 1 µM, 7x7, partner max 1 µM)	-0.0465
Cc1cc2ncnn2cc1Nc1ncc2c(n1)n(C1CCOCC1)c(=O)n2C [AZD7648] + CCN(CCO)CCCOc1ccc2c(Nc3cc(CC(=O)Nc4cccc(F)c4)[nH]n3)ncnc2c1 [AZD2811] (first compound max 10 µM, 7x7, partner max 1 µM)	-0.0667
CN(CCO)CC[C@H](CSc1ccccc1)Nc1ccc(S(=O)(=O)NC(=O)c2ccc(N3CCC([C@@H](O)c4ccccc4-c4ccc(Cl)cc4)CC3)cc2)cc1S(=O)(=O)C(F)(F)F [AZD4320] + C1CN(CCC1(C(=O)N[C@@H](CCO)C2=CC=C(C=C2)Cl)N)C3=NC=NC4=C3C=CN4 [Capivasertib] (first compound max 1 µM, 7x7, partner max 3 µM)	-0.0203
C[C@@H](c1ccc2nccn2c1)n1nnc2ncc(-c3cnn(C)c3)nc21 [Savolitinib] + CN(CC[C@H](CSC1=CC=CC=C1)NC2=C(C=C(C=C2)S(=O)(=O)NC(=O)C3=CC=C(C=C3)N4CCC(CC4)[C@H](C5=CC=CC=C5C6=CC=C(C=C6)Cl)O)S(=O)(=O)C(F)(F)F)CCO [AZD4320] (first compound max 1 µM, 7x7, partner max 1 µM)	-0.0182
C[C@@H]1COCCN1c1cc(C2([S@](C)(=N)=O)CC2)nc(-c2ccnc3[nH]ccc23)n1 [AZD6738] + O=C(c1cc(Cc2n[nH]c(=O)c3ccccc23)ccc1F)N1CCN(C(=O)C2CC2)CC1 [Olaparib] (first compound max 10 µM, 7x7, partner max 10 µM)	-0.0608

Consider the additional compound presented here.
// field: Bliss excess; key: COc1cccc(OCCCN)c1-c1cc(Nc2cnc(C#N)cn2)n[nH]1 [Prexasertib] + C=CCn1c(=O)c2cnc(Nc3ccc(N4CCN(C)CC4)cc3)nc2n1-c1cccc(C(C)(C)O)n1 [AZD1775] (first compound max 1 µM, partner max 1 µM) ; value = 0.0224
